substrate: [H][C@]12SCC(COC(C)=O)=C(C(=O)O)N1C(=O)[C@H]2NC(=O)CCC[C@@H](N)C(=O)O; test: CPC consumption by HPLC, initial rates; format: biochemical, Trigonopsis variabilis; conditions: 0.1 M potassium phosphate pH 8.0, 30 °C, air saturated
Rule: measured kcat below 60 s⁻¹ gets Condition met; anything equal to or greater than 60 s⁻¹ gets Condition not met.

[[record]]
protein = "TvDAAO (Trigonopsis variabilis; C108F/F54S/M156L) (protein, FAD-containing; no tag mentioned) MAKIVVIGAGVAGLTTALQLLRKGHEVTIVSEFTPGDLSIGYTSPWAGANWLTSYDGGKLADYDAVSYPILRELARSSPEAGIRLISQRSHVLKRDLPKLEVAMSAIFQRNPWFKNTVDSFEIIEDRSRIVHDDVAYLVEFRSVCIHTGVYLNWLLSQCLSLGATVVKRRVNHIKDANLLHSSGSRPDVIVNCSGLFARFLGGVEDKKMYPIRGQVVLVRNSLPFMASFSSTPEKENEDEALYIMTRFDGTSIIGGCFQPNNWSSEPDPSLTHRILSRALDRFPELTKDGPLDIVRECVGHRPGREGGPRVELEKIPGVGFVVHNYGAAGAGYQSSYGMADEAVSYVERALTRPNL"
qualitative_label = "Condition not met"

[[record]]
protein = "TvDAAO (Trigonopsis variabilis; C108F/C298G/E32R/F33D/F54S/M156L) (protein, FAD-containing; no tag mentioned) MAKIVVIGAGVAGLTTALQLLRKGHEVTIVSRDTPGDLSIGYTSPWAGANWLTSYDGGKLADYDAVSYPILRELARSSPEAGIRLISQRSHVLKRDLPKLEVAMSAIFQRNPWFKNTVDSFEIIEDRSRIVHDDVAYLVEFRSVCIHTGVYLNWLLSQCLSLGATVVKRRVNHIKDANLLHSSGSRPDVIVNCSGLFARFLGGVEDKKMYPIRGQVVLVRNSLPFMASFSSTPEKENEDEALYIMTRFDGTSIIGGCFQPNNWSSEPDPSLTHRILSRALDRFPELTKDGPLDIVREGVGHRPGREGGPRVELEKIPGVGFVVHNYGAAGAGYQSSYGMADEAVSYVERALTRPNL"
qualitative_label = "Condition not met"

[[record]]
protein = "TvDAAO (Trigonopsis variabilis; C108F/C298Q/E32R/F33D/F54S/M156L) (protein, FAD-containing; no tag mentioned) MAKIVVIGAGVAGLTTALQLLRKGHEVTIVSRDTPGDLSIGYTSPWAGANWLTSYDGGKLADYDAVSYPILRELARSSPEAGIRLISQRSHVLKRDLPKLEVAMSAIFQRNPWFKNTVDSFEIIEDRSRIVHDDVAYLVEFRSVCIHTGVYLNWLLSQCLSLGATVVKRRVNHIKDANLLHSSGSRPDVIVNCSGLFARFLGGVEDKKMYPIRGQVVLVRNSLPFMASFSSTPEKENEDEALYIMTRFDGTSIIGGCFQPNNWSSEPDPSLTHRILSRALDRFPELTKDGPLDIVREQVGHRPGREGGPRVELEKIPGVGFVVHNYGAAGAGYQSSYGMADEAVSYVERALTRPNL"
qualitative_label = "Condition not met"

[[record]]
protein = "TvDAAO (Trigonopsis variabilis; C108F/E32R/F33D) (protein, FAD-containing; no tag mentioned) MAKIVVIGAGVAGLTTALQLLRKGHEVTIVSRDTPGDLSIGYTSPWAGANWLTFYDGGKLADYDAVSYPILRELARSSPEAGIRLISQRSHVLKRDLPKLEVAMSAIFQRNPWFKNTVDSFEIIEDRSRIVHDDVAYLVEFRSVCIHTGVYLNWLMSQCLSLGATVVKRRVNHIKDANLLHSSGSRPDVIVNCSGLFARFLGGVEDKKMYPIRGQVVLVRNSLPFMASFSSTPEKENEDEALYIMTRFDGTSIIGGCFQPNNWSSEPDPSLTHRILSRALDRFPELTKDGPLDIVRECVGHRPGREGGPRVELEKIPGVGFVVHNYGAAGAGYQSSYGMADEAVSYVERALTRPNL"
qualitative_label = "Condition met"

[[record]]
protein = "TvDAAO (Trigonopsis variabilis; C108F/E32R/F33D/F54S) (protein, FAD-containing; no tag mentioned) MAKIVVIGAGVAGLTTALQLLRKGHEVTIVSRDTPGDLSIGYTSPWAGANWLTSYDGGKLADYDAVSYPILRELARSSPEAGIRLISQRSHVLKRDLPKLEVAMSAIFQRNPWFKNTVDSFEIIEDRSRIVHDDVAYLVEFRSVCIHTGVYLNWLMSQCLSLGATVVKRRVNHIKDANLLHSSGSRPDVIVNCSGLFARFLGGVEDKKMYPIRGQVVLVRNSLPFMASFSSTPEKENEDEALYIMTRFDGTSIIGGCFQPNNWSSEPDPSLTHRILSRALDRFPELTKDGPLDIVRECVGHRPGREGGPRVELEKIPGVGFVVHNYGAAGAGYQSSYGMADEAVSYVERALTRPNL"
qualitative_label = "Condition not met"

